Values were extracted from patent US9006228B2.

Target: UniProtKB Q8TDV5
Sequence (Q8TDV5 1-308 limits assumed): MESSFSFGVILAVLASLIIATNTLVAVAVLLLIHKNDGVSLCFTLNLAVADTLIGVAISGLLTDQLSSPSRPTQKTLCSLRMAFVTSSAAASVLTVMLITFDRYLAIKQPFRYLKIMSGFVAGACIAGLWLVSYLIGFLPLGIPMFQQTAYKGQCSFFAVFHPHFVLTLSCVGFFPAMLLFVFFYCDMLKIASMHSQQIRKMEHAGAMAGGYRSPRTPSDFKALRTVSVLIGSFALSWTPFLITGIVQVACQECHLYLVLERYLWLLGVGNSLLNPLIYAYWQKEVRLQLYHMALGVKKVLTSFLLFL
Assay: Measurement of GPR119 signaling (cAMP assay; LANCE kit or HTRF) in HEK293 cells stably transfected with human GPR119
Details: agonist-stimulated cAMP in HEK293 cells expressing human GPR119
reported-property: pEC50
pEC50 field: float, defined as -log10 of concentration (mol/L).

# example entries with known answers
compound	pEC50
CC(O)CS(=O)(=O)c1ccc(COC[C@@H]2C[C@@H]2C2CCN(c3cnc(Cl)cn3)CC2)c(F)c1 (stereo partly drawn)	8.14
CCc1cnc(N2CCC([C@H]3C[C@H]3COCc3ccc(S(=O)(=O)CC[C@H](C)O)cc3)CC2)nc1	9.22
CCc1cnc(N2CCC([C@H]3C[C@H]3COCc3ccc(-c4ncco4)cc3)CC2)nc1	7.92
CS(=O)(=O)c1ccc(COC[C@@H]2C[C@@H]2C2CCN(c3nc(C4CC4)no3)CC2)cc1F	9.22
CS(=O)(=O)c1c(F)cc(COC[C@@H]2C[C@@H]2C2CCN(c3ncc(C4CC4)cn3)CC2)cc1F	9.22
O=S(=O)(CCO)c1ccc(COC[C@@H]2C[C@@H]2C2CCN(c3ncc(Br)cn3)CC2)nc1	7.97
CC(C)c1noc(N2CCC([C@H]3C[C@H]3COCc3ccc(CC(=O)N4CC(O)C4)c(F)c3)CC2)n1	8.20
CS(=O)(=O)c1ccc(COC[C@@H]2C[C@@H]2C2CCN(c3ncc(Cl)cn3)CC2)cc1	9.15

Read the next record carefully.
Entry CCc1cnc(N2CCC([C@H]3C[C@H]3COCc3ccc(C[C@@H](C)O)cc3)CC2)nc1 ; pEC50 = 7.96
